tested on: Helix pomatia; assay: Inhibitory activity against Beta-mannosidase of Helix pomatia at 1 mM; No inhibition
parameter-measured: inhibition

Cc1oc(C2NCC(O)C2O)cc1CO (centres undefined) = No inhibition
Cc1oc(C2NCC(O)C2O)cc1C(=O)O (centres undefined) = No inhibition
COC(=O)c1cc(C2NCC(O)C2O)oc1C (centres undefined) = No inhibition
Cc1oc(C2NCC(O)C2O)cc1C(=O)Nc1ccccc1 (centres undefined) = No inhibition
